# protocol-details: Elimination of andrographolide in urine and feces
# Assay type: in vivo, beagle dogs
# stated-conditions: beagle, dog, urine, po, 3 mg/kg
property-measured: dose excreted

INSERT INTO assay_data (compound, property_measured, endpoint_value) VALUES
  ('C=C1CC[C@@H]2[C@](C)(CO)[C@H](O)CC[C@@]2(C)[C@@H]1C/C=C1/C(=O)OC[C@H]1O [andrographolide, Andrographolide]', 'dose excreted', '0.1 to 1%');

The reported measurements were obtained from paper PMC10868414.
